test: qHTS profiling for inhibitors of Plasmodium falciparum proliferation (AID 504749);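 note: 0% = DMSO vehicle and full inhibition = artemisinin control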; details: P. falciparum in erythrocytes, SYBR Green DNA, 72 h; at 12.8 µM (top of the series); parasite line A
Records with an inconclusive call do not appear. Bridge positions count the residues as written; N and C are the ends. Square brackets hold non-standard residues; d marks the D form. Peptide text beside a SMILES is read from it. * marks the point of attachment. Ileψ(thiazoline)Cys = CC[C@H](C)[C@H](N)C1=N[C@H](C(=O)*)CS1; d(aIle) = CC[C@H](C)[C@@H](N)C(=O)O; dOrn = NCCC[C@@H](N)C(=O)O
resultType: activity, negative = inhibition (%)

molecule: NC[C@@H]1O[C@@H](O[C@H]2[C@H](O)[C@H](O[C@@H]3O[C@H](CO)[C@@H](O)[C@H](N)[C@@H]3O)[C@@H](N)C[C@H]2N)[C@H](N)C[C@@H]1O
observedValue: 9.72
--
molecule: NC[C@@H]1O[C@H](O[C@H]2[C@H](O)[C@H](O[C@@H]3O[C@H](CO)[C@@H](O)[C@H](N)[C@@H]3O)[C@@H](N)C[C@H]2N)[C@@H](O)[C@H](O)[C@@H]1O
observedValue: 3.46
--
molecule: NC[C@@H]1O[C@H](O[C@@H]2[C@H](O[C@@H]3O[C@H](CO)[C@@H](O)[C@@H]3O)[C@@H](O)[C@@H](N)C[C@H]2N)[C@@H](N)[C@H](O)[C@@H]1O
observedValue: -3.69
--
molecule: O=C(NC[C@@H](O)CO)c1c(I)c(C(=O)NC[C@@H](O)CO)c(I)c(N(CCO)C(=O)CO)c1I
observedValue: 7.51
--
molecule: NC(=O)c1cc[n+](CC2=C(C(=O)[O-])N3C(=O)[C@@H](NC(=O)Cc4cccs4)[C@@H]3SC2)cc1
observedValue: -3.3
--
molecule: CCCC[C@H](CC)CN1CN(C[C@@H](CC)CCCC)CC(C)(N)C1
observedValue: -5.01
--
molecule: CC(=O)OCC(=O)[C@@]1(O)[C@H](C)C[C@@H]2[C@H]3CCC4=CC(=O)C=C[C@]4(C)[C@]3(F)[C@@H](O)C[C@@]21C
observedValue: 0.4
--
molecule: O=C(OC[C@@H](O)CO)c1ccccc1Nc1ccnc2cc(Cl)ccc12
observedValue: -14.6
--
molecule: CC(=O)C[C@H](c1ccc([N+](=O)[O-])cc1)c1c(O)c2ccccc2oc1=O
observedValue: 7.55
--
molecule: CC[C@H](C)[C@H](N)C1=N[C@H](C(=O)N[C@@H](CC(C)C)C(=O)N[C@@H](CCC(=O)O)C(=O)N[C@@H](C(=O)N[C@H]2CCCCNC(=O)[C@@H](CC(N)=O)NC(=O)[C@@H](CC(=O)O)NC(=O)[C@@H](Cc3cnc[nH]3)NC(=O)[C@@H](Cc3ccccc3)NC(=O)[C@@H]([C@@H](C)CC)NC(=O)[C@@H](CCCN)NC2=O)[C@@H](C)CC)CS1 ({Ileψ(thiazoline)Cys}-LE[d(aIle)]K[dOrn][d(aIle)][dF][dH][dD][dN]; lactam 4-C)
observedValue: 0.552

The reported measurements were obtained from PubChem BioAssay (NCATS).
